test: Cytotoxicity against human U87MG cells assessed as cell viability at 500 uM after 72 hrs by MTT assay relative to control; format: cell-based, U-87MG ATCC; conditions: read-out: Activity
Measurement Type: viability at 72 h, 500 µM
Answer with the number, then the unit.

Prompt line: What viability at 72 h, 500 µM value was documented for this compound, O=c1[nH]c(CNC(CO)CO)c(I)c(=O)[nH]1 ?
Response line: 89%

====

assay: Cytotoxicity against mouse RAW264.7 cells assessed as cell viability at 1000 uM after 72 hrs by MTT assay relative to control; format: cell-based; details: read-out: Activity
Measurement Type: viability at 72 h, 1000 µM (%)
Numbers only; they are read as %.

Prompt line: viability at 72 h, 1000 µM for O=c1[nH]c(CNC(CO)CO)c(I)c(=O)[nH]1 ?
Response line: 72

====

test: Cytotoxicity against African green monkey Vero cells assessed as cell viability at 500 uM after 72 hrs by neutral red uptake-based assay relative to control; conditions: chlorocebus sabaeus, read-out: Activity
Measurement Type: viability at 72 h, 500 µM (%)
Hi! Could you send only the number? It should be in %, unit omitted.

Prompt line: Requested read-out: viability at 72 h, 500 µM. Entry: O=c1[nH]c(CNC(CO)CO)c(I)c(=O)[nH]1
Response line: 90

====

test: Cytotoxicity against human HepG2 cells assessed as cell viability at 50 uM after 72 hrs by neutral red uptake-based assay relative to control; conditions: read-out: Activity
Measurement Type: viability at 72 h, 50 µM (%)
Return type: number; implicit unit %.

Prompt line: # lookup: viability at 72 h, 50 µM of O=c1[nH]c(CNC(CO)CO)c(I)c(=O)[nH]1
Response line: 103

====

assay: Cytotoxicity against human U87MG cells assessed as cell viability at 250 uM after 72 hrs by neutral red uptake-based assay relative to control; parameters: species or system U-87MG ATCC; conditions: read-out: Activity
Measurement Type: viability at 72 h, 250 µM (%)
Expressed in %, but write only the number.

Prompt line: Quick check: viability at 72 h, 250 µM of O=c1[nH]c(CNC(CO)CO)c(I)c(=O)[nH]1 ?
Response line: 98

====

assay: Cytotoxicity against mouse RAW264.7 cells assessed as cell viability at 25 uM after 72 hrs by MTT assay relative to control; format: cell-based; conditions: read-out: Activity
Measurement Type: viability at 72 h, 25 µM (%)
// units = %; emit number, no label

Prompt line: Item under review: O=c1[nH]c(CNC(CO)CO)c(I)c(=O)[nH]1 . Reported viability at 72 h, 25 µM?
Response line: 103

====

experiment: Cytotoxicity against African green monkey Vero cells assessed as cell viability at 50 uM after 72 hrs by MTT assay relative to control; type: cell-based; settings: chlorocebus sabaeus, read-out: Activity
Measurement Type: viability at 72 h, 50 µM (%)
Reply numerically in %, unit not repeated.

Prompt line: Look at this compound and give its reported viability at 72 h, 50 µM. O=c1[nH]c(CNC(CO)CO)c(I)c(=O)[nH]1
Response line: 97
